target: Phosphatidylinositol 4-kinase alpha (Homo sapiens, UniProt P42356); test: Inhibition of N-terminal FLAG-tagged human full length recombinant PI4K3alpha using D-myo-phosphatidylinositol substrate and ATP incubated for 45 mins by ADP-Glo kinase Assay
Sequence (P42356 whole entry): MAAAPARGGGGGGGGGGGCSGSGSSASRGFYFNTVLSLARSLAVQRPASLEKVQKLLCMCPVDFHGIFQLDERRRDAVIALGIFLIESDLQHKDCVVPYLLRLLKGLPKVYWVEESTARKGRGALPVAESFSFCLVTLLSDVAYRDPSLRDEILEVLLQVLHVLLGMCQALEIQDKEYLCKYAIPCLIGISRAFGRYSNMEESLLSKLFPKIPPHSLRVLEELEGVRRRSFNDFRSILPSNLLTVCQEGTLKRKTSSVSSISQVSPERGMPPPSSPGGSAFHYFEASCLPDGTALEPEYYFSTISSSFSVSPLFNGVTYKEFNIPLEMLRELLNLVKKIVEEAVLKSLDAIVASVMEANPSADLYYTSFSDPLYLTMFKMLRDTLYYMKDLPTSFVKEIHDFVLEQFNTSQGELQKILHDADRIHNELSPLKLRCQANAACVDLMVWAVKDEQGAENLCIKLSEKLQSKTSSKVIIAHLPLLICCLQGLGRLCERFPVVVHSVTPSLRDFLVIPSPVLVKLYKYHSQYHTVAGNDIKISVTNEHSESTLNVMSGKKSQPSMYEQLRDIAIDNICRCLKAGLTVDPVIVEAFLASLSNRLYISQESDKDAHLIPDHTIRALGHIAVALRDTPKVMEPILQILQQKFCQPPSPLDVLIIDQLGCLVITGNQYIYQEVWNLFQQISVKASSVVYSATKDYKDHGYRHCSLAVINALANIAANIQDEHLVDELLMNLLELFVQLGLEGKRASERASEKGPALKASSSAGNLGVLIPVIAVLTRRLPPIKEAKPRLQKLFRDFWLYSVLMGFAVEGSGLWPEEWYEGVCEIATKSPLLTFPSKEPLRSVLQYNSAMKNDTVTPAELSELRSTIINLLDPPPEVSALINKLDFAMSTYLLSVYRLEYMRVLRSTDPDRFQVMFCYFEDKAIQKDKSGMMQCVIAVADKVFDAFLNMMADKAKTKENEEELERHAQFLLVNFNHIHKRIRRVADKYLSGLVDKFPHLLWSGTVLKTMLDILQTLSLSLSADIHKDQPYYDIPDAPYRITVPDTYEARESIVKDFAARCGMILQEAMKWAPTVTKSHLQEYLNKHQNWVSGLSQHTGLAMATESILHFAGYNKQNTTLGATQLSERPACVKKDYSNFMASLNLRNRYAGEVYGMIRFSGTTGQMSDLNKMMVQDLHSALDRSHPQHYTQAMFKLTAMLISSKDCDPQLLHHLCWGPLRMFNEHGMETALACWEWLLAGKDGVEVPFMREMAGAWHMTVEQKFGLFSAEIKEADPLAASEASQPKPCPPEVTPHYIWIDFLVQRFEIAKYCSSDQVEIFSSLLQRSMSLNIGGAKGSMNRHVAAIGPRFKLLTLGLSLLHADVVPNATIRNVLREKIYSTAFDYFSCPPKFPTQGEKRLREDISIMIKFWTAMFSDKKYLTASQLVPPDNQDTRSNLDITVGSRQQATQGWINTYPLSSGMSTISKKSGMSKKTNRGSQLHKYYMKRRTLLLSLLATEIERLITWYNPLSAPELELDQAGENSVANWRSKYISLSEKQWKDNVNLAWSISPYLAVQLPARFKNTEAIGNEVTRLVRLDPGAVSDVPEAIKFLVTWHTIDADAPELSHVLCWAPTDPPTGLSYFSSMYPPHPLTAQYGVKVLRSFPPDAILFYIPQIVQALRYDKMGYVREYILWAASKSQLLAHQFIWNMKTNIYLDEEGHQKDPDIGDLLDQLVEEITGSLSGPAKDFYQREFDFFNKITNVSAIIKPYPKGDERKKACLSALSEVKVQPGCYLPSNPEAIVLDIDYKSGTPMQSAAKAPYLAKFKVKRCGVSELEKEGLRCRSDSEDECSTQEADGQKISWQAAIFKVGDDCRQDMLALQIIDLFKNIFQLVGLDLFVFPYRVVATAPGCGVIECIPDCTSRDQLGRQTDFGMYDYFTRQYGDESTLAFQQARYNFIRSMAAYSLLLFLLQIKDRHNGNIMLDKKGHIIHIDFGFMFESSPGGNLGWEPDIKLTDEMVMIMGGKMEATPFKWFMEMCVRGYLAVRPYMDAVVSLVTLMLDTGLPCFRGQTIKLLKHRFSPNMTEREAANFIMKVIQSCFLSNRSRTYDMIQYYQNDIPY
pIC50: −log10 of the molar value.
Measurement label: pIC50

Example compounds with recorded pIC50:
# Chem smiles, pIC50
rows = [
    ("COc1ccc(-c2ccc3nc(N)sc3c2)cn1", 6.20),
    ("Nc1nc2ccc(-c3ccc(C(F)(F)F)nc3)cc2s1", 4.80),
    ("CCn1ccc(-c2ccc3nc(N)sc3c2)cc1=O", 6.50),
]

I. COCCOc1ccc(-c2ccc3nc(N)sc3c2)cn1
II. CS(=O)(=O)c1ccc(-c2ccc3nc(N)sc3c2)cn1
### Prompt Select one: I or II . Criterion: greater recorded pIC50. Indicate your choice by writing its label.
### Response I

* * *

biological target: Phosphatidylinositol 4-kinase beta (Homo sapiens); assay: Inhibition of N-terminal GST-tagged human full length recombinant PI4K3beta expressed in Sf9 cells using D-myo-phosphatidylinositol substrate and ATP incubated for 45 mins by ADP-Glo kinase Assay
Measurement label: IC50 (µM)

I. Cn1cc(-c2ccc3nc(N)sc3c2)cn1
II. CCOc1ccc(-c2ccc3nc(N)sc3c2)cn1
III. CN(C)C(=O)c1ccc(-c2ccc3nc(N)sc3c2)cn1
### Prompt Ranking criterion: IC50, increasing numeric value. Items: as listed above. Kindly provide the labels arranged according to the requested ordering.
### Response II, I, III
(II: 0.631 µM, I: 1.26 µM, III: 39.8 µM)

A. CCSc1ccc(-c2ccc3nc(N)sc3c2)cn1
B. COCCOc1ccc(-c2ccc3nc(N)sc3c2)cn1
C. CS(=O)(=O)c1ccc(-c2ccc3nc(N)sc3c2)cn1
D. COCc1ccc(-c2ccc3nc(N)sc3c2)cn1
### Prompt Order the records by IC50, with each subsequent value no larger than the one before. Kindly provide the labels arranged according to the requested ordering.
### Response C, B, A, D

A. CC(C)n1cc(-c2ccc3nc(N)sc3c2)cn1
B. Nc1nc2ccc(-c3ccn(CC4CC4)c(=O)c3)cc2s1
C. Nc1nc2ccc(-c3ccc(OCCO)nc3)cc2s1
D. Cn1ccc(-c2ccc3nc(N)sc3c2)cc1=O
E. Nc1nc2ccc(-c3ccc(CO)nc3)cc2s1
### Prompt In this exercise, place the 5 compounds in ascending sequence of their recorded IC50. Kindly provide the labels arranged according to the requested ordering.
### Response D, C, E, B, A
(D: 0.316 µM, C: 0.501 µM, E: 0.794 µM, B: 1.58 µM, A: 2.51 µM)

1. CNC(=O)c1ccc(-c2ccc3nc(N)sc3c2)cn1
2. Cn1ccc(-c2ccc3nc(N)sc3c2)n1
### Prompt Select one: 1 or 2 . Criterion: greater recorded IC50. Indicate your choice by writing its label.
### Response 1
(1: 2.51 µM, 2: 1.26 µM)

* * *

molecular target: Phosphatidylinositol 4,5-bisphosphate 3-kinase catalytic subunit gamma isoform (Homo sapiens, UniProt P48736); test: Inhibition of PI3Kgamma (unknown origin) pre-incubated for 20 mins before phosphatidylinositol 4, 5-bisphosphate substrate addition by kinase-glo plus luminescence assay
Sequence (P48736 whole entry, canonical isoform): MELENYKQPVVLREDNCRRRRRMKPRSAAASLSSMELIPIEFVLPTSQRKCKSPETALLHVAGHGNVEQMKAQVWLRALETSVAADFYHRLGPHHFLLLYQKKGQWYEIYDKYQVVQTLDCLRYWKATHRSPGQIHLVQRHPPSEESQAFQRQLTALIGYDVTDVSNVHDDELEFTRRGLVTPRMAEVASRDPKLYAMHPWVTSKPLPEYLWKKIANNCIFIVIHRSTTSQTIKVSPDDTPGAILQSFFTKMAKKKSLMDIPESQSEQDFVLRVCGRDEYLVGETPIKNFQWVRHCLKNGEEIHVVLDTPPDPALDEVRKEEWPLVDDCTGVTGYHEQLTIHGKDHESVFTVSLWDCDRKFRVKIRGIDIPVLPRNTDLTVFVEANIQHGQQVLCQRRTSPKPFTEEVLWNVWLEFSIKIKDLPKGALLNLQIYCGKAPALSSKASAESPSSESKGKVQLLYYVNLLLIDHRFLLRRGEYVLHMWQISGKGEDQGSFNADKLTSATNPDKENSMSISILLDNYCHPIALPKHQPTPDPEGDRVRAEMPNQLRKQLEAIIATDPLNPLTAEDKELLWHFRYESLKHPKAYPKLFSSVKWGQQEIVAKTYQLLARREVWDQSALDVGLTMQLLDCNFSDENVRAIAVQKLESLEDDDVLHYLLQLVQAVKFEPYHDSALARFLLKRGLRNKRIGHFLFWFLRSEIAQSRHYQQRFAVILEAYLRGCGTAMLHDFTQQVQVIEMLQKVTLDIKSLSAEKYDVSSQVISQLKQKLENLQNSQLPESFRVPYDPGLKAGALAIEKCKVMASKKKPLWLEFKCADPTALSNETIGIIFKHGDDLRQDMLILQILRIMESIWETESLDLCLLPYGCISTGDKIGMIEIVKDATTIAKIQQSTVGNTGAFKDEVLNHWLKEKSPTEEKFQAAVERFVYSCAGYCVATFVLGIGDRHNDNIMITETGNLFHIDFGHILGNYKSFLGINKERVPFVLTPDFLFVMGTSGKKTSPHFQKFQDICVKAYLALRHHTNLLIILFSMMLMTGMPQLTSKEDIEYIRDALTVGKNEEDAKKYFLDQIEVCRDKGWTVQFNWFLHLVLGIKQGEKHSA
Measurement label: IC50 (µM)

# Chem smiles, Value observed
measured = [
    ("CCNc1ccc(-c2ccc3nc(N)sc3c2)cn1", 3.98),
    ("C[C@@H](Nc1nc2ccc(-c3ccn(CC4CC4)c(=O)c3)cc2s1)C1CCOCC1", 63.1),
    ("Cn1nccc1-c1ccc2nc(N)sc2c1", 2.51),
    ("Nc1nc2ccc(-c3ccn(CC4CC4)c(=O)c3)cc2s1", 1.58),
    ("CCn1ccc(-c2ccc3nc(N)sc3c2)cc1=O", 3.16),
    ("CC(C)n1cc(-c2ccc3nc(N)sc3c2)cn1", 3.98),
]

1. Cn1cc(-c2ccc3nc(N)sc3c2)cn1
2. CS(=O)(=O)c1ccc(-c2ccc3nc(N)sc3c2)cn1
### Prompt Select one: 1 or 2 . Criterion: greater recorded IC50. Indicate your choice by writing its label.
### Response 2
(2: 10 µM, 1: 2.51 µM)

* * *

target: Phosphatidylinositol 4,5-bisphosphate 3-kinase catalytic subunit delta isoform (Homo sapiens); assay: Inhibition of PI3Kdelta (unknown origin) pre-incubated for 20 mins before phosphatidylinositol 4, 5-bisphosphate substrate addition by kinase-glo plus luminescence assay
pIC50: −log10 of the molar value.
Measurement label: pIC50

# Chem smiles, pIC50
rows = [
    ("CN(C)C(=O)c1ccc(-c2ccc3nc(N)sc3c2)cn1", 4.20),
    ("Cn1cc(-c2ccc3nc(N)sc3c2)cn1", 5.10),
]

P. Nc1nc2ccc(-c3cnccn3)cc2s1
Q. Nc1nc2ccc(-c3cnn(C4CC4)c3)cc2s1
R. CS(=O)(=O)c1cncc(-c2ccc3nc(N)sc3c2)c1
S. Nc1nc2ccc(-c3ccccn3)cc2s1
### Prompt Order the records by pIC50, with each subsequent value no larger than the one before. Kindly provide the labels arranged according to the requested ordering.
### Response R, Q, P, S

* * *

target: Phosphatidylinositol 4,5-bisphosphate 3-kinase catalytic subunit beta isoform (Homo sapiens, UniProt P42338); assay: Inhibition of PI3Kbeta (unknown origin) pre-incubated for 20 mins before phosphatidylinositol 4, 5-bisphosphate substrate addition by kinase-glo plus luminescence assay
Sequence (P42338 whole entry, canonical isoform): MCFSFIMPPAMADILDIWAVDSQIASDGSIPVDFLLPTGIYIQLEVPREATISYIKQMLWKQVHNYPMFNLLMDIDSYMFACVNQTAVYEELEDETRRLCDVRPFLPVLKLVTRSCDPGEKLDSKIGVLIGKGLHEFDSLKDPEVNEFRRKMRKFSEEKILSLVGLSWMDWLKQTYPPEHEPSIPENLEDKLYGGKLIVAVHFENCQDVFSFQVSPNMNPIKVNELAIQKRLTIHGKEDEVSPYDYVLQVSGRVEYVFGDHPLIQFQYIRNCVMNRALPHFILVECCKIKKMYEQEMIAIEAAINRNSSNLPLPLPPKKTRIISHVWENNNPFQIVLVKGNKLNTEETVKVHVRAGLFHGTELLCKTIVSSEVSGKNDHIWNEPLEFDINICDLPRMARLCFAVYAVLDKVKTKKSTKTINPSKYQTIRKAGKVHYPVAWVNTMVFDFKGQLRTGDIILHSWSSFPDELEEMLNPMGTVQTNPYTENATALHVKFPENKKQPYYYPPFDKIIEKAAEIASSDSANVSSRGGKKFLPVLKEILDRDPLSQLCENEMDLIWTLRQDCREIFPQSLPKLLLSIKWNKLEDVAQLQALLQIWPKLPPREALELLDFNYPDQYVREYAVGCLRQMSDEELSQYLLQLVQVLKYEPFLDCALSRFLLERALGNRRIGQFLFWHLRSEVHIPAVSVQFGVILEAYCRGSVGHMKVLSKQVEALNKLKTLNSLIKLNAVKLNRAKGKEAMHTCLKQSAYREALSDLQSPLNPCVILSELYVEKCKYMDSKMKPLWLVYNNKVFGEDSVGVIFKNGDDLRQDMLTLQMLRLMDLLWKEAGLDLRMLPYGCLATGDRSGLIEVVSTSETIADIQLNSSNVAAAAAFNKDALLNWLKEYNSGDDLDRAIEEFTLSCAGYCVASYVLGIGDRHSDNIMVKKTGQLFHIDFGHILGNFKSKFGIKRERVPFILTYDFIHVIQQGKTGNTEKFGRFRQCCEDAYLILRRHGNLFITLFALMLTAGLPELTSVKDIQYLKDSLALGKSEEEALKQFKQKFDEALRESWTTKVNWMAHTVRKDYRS
IC50 values, listed per item

### Prompt Name the recorded IC50 of the compound listed here: `COCCOn1ccc(-c2ccc3nc(N)sc3c2)cc1=O`
### Response > 200 µM

### Prompt Name the recorded IC50 of the compound listed here: `C[C@@H](Nc1nc2ccc(-c3ccn(CC4CC4)c(=O)c3)cc2s1)C1CCOCC1`
### Response > 200 µM

### Prompt Name the recorded IC50 of the compound listed here: `O=c1cc(-c2ccc3nc(NCC4CCOCC4)sc3c2)ccn1CC1CC1`
### Response > 200 µM

* * *

biological target: Phosphatidylinositol 4-kinase beta (Homo sapiens, UniProt Q9UBF8); assay: Inhibition of N-terminal GST-tagged human full length recombinant PI4K3beta expressed in Sf9 cells using D-myo-phosphatidylinositol substrate and ATP incubated for 45 mins by ADP-Glo kinase Assay
Sequence (Q9UBF8 whole entry): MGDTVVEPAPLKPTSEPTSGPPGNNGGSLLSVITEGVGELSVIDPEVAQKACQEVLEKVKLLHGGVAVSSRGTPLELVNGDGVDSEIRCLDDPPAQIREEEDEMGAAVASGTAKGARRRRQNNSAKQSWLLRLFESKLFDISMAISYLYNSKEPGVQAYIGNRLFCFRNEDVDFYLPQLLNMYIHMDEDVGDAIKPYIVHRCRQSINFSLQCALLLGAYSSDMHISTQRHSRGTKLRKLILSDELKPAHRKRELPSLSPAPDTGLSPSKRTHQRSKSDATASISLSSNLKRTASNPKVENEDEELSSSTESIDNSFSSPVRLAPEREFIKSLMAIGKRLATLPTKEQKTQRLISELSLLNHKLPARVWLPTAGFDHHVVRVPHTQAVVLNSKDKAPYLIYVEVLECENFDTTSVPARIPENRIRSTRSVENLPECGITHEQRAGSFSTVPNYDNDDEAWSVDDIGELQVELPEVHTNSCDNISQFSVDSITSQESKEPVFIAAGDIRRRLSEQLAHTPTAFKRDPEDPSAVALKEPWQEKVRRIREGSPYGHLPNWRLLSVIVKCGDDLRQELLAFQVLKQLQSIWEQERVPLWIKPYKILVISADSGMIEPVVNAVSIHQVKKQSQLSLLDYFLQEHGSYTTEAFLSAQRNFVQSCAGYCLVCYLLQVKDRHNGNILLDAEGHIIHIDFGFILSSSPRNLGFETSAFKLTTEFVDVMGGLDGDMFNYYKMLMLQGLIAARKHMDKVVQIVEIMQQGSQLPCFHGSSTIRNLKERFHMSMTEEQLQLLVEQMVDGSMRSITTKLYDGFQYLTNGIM
pIC50: −log10 of the molar value.
Measurement label: pIC50

Example molecules with recorded pIC50:
# Chem smiles, pIC50
measured = [
    ("Nc1nc2ccc(-c3cnn(CC4CC4)c3)cc2s1", 5.70),
    ("Nc1nc2ccc(-c3cccnc3)cc2s1", 6.20),
    ("Cc1ccc(-c2ccc3nc(N)sc3c2)cn1", 6.30),
    ("O=c1cc(-c2ccc3nc(NC[C@H]4CC[C@H](C(=O)O)CC4)sc3c2)ccn1CC1CC1", 6.60),
    ("Nc1nc2ccc(-c3ccncc3)cc2s1", 6.00),
]

a. C[C@H](Nc1nc2ccc(-c3ccn(CC4CC4)c(=O)c3)cc2s1)C1CCOCC1
b. Nc1nc2ccc(-c3ncccn3)cc2s1
c. C[C@@H](Nc1nc2ccc(-c3ccn(CC4CC4)c(=O)c3)cc2s1)C1CCOCC1
d. CCN(C)c1ccc(-c2ccc3nc(N)sc3c2)cn1
e. Cn1nccc1-c1ccc2nc(N)sc2c1
### Prompt Order the records by pIC50, with each subsequent value no larger than the one before. Kindly provide the labels arranged according to the requested ordering.
### Response c, e, d, a, b
(c: 6.50, e: 6.00, d: 5.80, a: 5.60, b: 5.20)

* * *

target: Phosphatidylinositol 4,5-bisphosphate 3-kinase catalytic subunit delta isoform (Homo sapiens, UniProt O00329); experiment: Inhibition of PI3Kdelta (unknown origin) pre-incubated for 20 mins before phosphatidylinositol 4, 5-bisphosphate substrate addition by kinase-glo plus luminescence assay
IC50 values, listed per item

Example molecules with recorded IC50:
# Chem smiles, IC50
records = [
    ("COCCOn1ccc(-c2ccc3nc(N)sc3c2)cc1=O", "> 200 µM"),
    ("O=c1cc(-c2ccc3nc(NCC4CCS(=O)(=O)CC4)sc3c2)ccn1CC1CC1", "> 200 µM"),
    ("C[C@@H](Nc1nc2ccc(-c3ccn(CC4CC4)c(=O)c3)cc2s1)C1CCOCC1", "> 200 µM"),
    ("C[C@H](Nc1nc2ccc(-c3ccn(CC4CC4)c(=O)c3)cc2s1)C1CCOCC1", "> 200 µM"),
]

Would you kindly look at the next entry?
### Prompt Name the recorded IC50 of the molecule listed here: `O=c1cc(-c2ccc3nc(NC[C@H]4CC[C@H](C(=O)O)CC4)sc3c2)ccn1CC1CC1`
### Response > 79.4 µM

* * *

molecular target: Phosphatidylinositol 4-kinase beta (Homo sapiens, UniProt Q9UBF8); test: Inhibition of N-terminal GST-tagged human full length recombinant PI4K3beta expressed in Sf9 cells using D-myo-phosphatidylinositol substrate and ATP incubated for 45 mins by ADP-Glo kinase Assay
pIC50: −log10 of the molar value.
Measurement label: pIC50

Example compounds with recorded pIC50:
# Chem smiles, Value observed
records = [
    ("Nc1nc2ccc(-c3ccc(C(F)(F)F)nc3)cc2s1", 5.80),
    ("CCCn1cc(-c2ccc3nc(N)sc3c2)cn1", 5.70),
]

I. Nc1nc2ccc(-c3cnn(C4CC4)c3)cc2s1
II. Nc1nc2ccc(-c3ccc(=O)[nH]c3)cc2s1
III. COc1ccc(-c2ccc3nc(N)sc3c2)cn1
IV. O=c1cc(-c2ccc3nc(NCC4CCOCC4)sc3c2)ccn1CC1CC1
V. Nc1nc2ccc(-c3cnccn3)cc2s1
### Prompt In this exercise, place the 5 compounds in ascending sequence of their recorded pIC50. Kindly provide the labels arranged according to the requested ordering.
### Response V, II, I, III, IV
(V: 5.20, II: 5.40, I: 5.70, III: 6.00, IV: 6.40)

I. CNCc1ccc(-c2ccc3nc(N)sc3c2)cn1
II. CCn1cc(-c2ccc3nc(N)sc3c2)cn1
### Prompt Given the two records I and II , choose the one whose pIC50 value is lower. Indicate your choice by writing its label.
### Response I
(I: 5.50, II: 5.80)

a. CC(C)Oc1ccc(-c2ccc3nc(N)sc3c2)cn1
b. CS(=O)(=O)c1cncc(-c2ccc3nc(N)sc3c2)c1
### Prompt Given the two records a and b , choose the one whose pIC50 value is lower. Indicate your choice by writing its label.
### Response b
